B1: PRKX (parent)
chain: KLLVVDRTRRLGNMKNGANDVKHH

Variants of: B1
Assay: protein stability index of a GFP-peptide fusion (GPS, HEK-293T) (PSI 1-6); higher = more stable;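 note: lentivirally expressed fusions sorted by FACS into six bins by GFP to DsRed ratio, PSI derived from sequencing read proportions per bin multiplied by bin number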
Details: c terminus: a fixed tail appended
READOUT_TYPE: protein stability index
Lab note: jot the number down without any unit.

MUTATION_KEY	protein stability index
R10G	3.35
D20G	3.27
V5N	3.3
T8N	2.78
R7D	4.05
L3R	3.87
L11H	3.64
H23Q	2.69

State the recorded protein stability index for this entry: L3A
3.92

State the recorded protein stability index for this entry: V21F
3.22
